# viability, T/C values compiled below
system: 299254-011-R-J1-PDC complex spheroid viability; test: Anticancer human tumor 299254-011-R-J1-PDC patient-derived melanoma cell line growth inhibition [POLQ]; details: second compound 0.316 µM; first compound 10 µM; stronger effect = lower value

molecule: C=CC(=O)N1CCN(c2nc(=O)n(-c3c(C)ccnc3C(C)C)c3nc(-c4c(O)cccc4F)c(F)cc23)C(C)C1 (stereo not drawn) + Cc1cccc(N(C)C(=O)C2C(O)CCN2c2nc(C)cc(C(F)(F)F)c2C#N)c1
measureUnit: %
viability, T/C: 64.4
--
molecule: CC(C)n1c(=O)n(C)c2cnc3cc(F)c(-c4ccc(OCCCN5CCCCC5)nc4)cc3c21 + COC1C(OC(N)=O)C(O)C(Oc2ccc3c(O)c(NC(=O)c4ccc(O)c(CC=C(C)C)c4)c(=O)oc3c2C)OC1(C)C
measureUnit: %
viability, T/C: 110
--
molecule: CC1COCCN1c1cc(C2(S(C)(=N)=O)CC2)nc(-c2ccnc3[nH]ccc23)n1 (stereo not drawn) + Nc1ccc(C#CCN(C(=O)Cc2ncc(C(F)(F)F)cc2C(F)(F)F)c2ccc(F)cc2)nn1
measureUnit: %
viability, T/C: 34.9

---

system: 299254-011-R-J1-PDC complex spheroid viability; experiment: Anticancer human tumor 299254-011-R-J1-PDC cell line growth inhibition [POLQ]; details: second compound 1 µM; first compound 10 µM; stronger effect = lower value;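 also: spheroids exposed to drugs for one week before measurement; percent viability relative to DMSO vehicle control taken as 100%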
# viability, T/C values compiled below

compound: CCc1cc2c(N3CCc4c(cc(Cn5ccnc5)cc4-c4cn(C)nc4C(F)(F)F)C3=O)ccnc2c(OC)n1 + Cc1cccc(N(C)C(=O)C2C(O)CCN2c2nc(C)cc(C(F)(F)F)c2C#N)c1
viability, T/C / %: 86

compound: CC1COCCN1c1cc(C2(S(C)(=N)=O)CC2)nc(-c2ccnc3[nH]ccc23)n1 (stereo not given) + Nc1ccc(C#CCN(C(=O)Cc2ncc(C(F)(F)F)cc2C(F)(F)F)c2ccc(F)cc2)nn1
viability, T/C / %: 39.8

compound: COc1cc(C2c3cc4c(cc3C(OC3OC5COC(C)OC5C(O)C3O)C3COC(=O)C23)OCO4)cc(OC)c1O (stereo not given) + Nc1ccc(C#CCN(C(=O)Cc2ncc(C(F)(F)F)cc2C(F)(F)F)c2ccc(F)cc2)nn1
viability, T/C / %: 82.3

compound: COc1cccc2c1C(=O)c1c(O)c3c(c(O)c1C2=O)CC(O)(C(=O)CO)CC3OC1CC(N)C(O)C(C)O1 (stereo not given) + Cc1cccc(N(C)C(=O)C2C(O)CCN2c2nc(C)cc(C(F)(F)F)c2C#N)c1
viability, T/C / %: 0.75

compound: C#Cc1c(F)ccc2cc(O)cc(-c3ncc4c(N5CC6CCC(C5)N6)nc(OCC56CCCN5CC(F)C6)nc4c3F)c12 (stereo not given) + Cc1cccc(N(C)C(=O)C2C(O)CCN2c2nc(C)cc(C(F)(F)F)c2C#N)c1
viability, T/C / %: 74.6

---

tested on: 299254-011-R-J1-PDC complex spheroid viability; assay: Anticancer human tumor 299254-011-R-J1-PDC cell line growth inhibition [POLQ]; settings: second compound 0.1 µM; first compound 0.0316 µM; stronger effect = lower value;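 also: spheroids exposed to drugs for one week before measurement; percent viability relative to DMSO vehicle control taken as 100%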
outcomeMeasure: viability, T/C (%)

molecule: COc1cccc(OCCCN)c1-c1cc(Nc2cnc(C#N)cn2)n[nH]1 + COC1C(OC(N)=O)C(O)C(Oc2ccc3c(O)c(NC(=O)c4ccc(O)c(CC=C(C)C)c4)c(=O)oc3c2C)OC1(C)C
testedTarget: 299254-011-R-J1-PDC complex spheroid viability
measureUnit: %
number: 72
//
molecule: CC1COCCN1c1cc(-c2ccnn2C)c2ccnc(-c3ccn[nH]3)c2n1 (stereo not given) + COC1C(OC(N)=O)C(O)C(Oc2ccc3c(O)c(NC(=O)c4ccc(O)c(CC=C(C)C)c4)c(=O)oc3c2C)OC1(C)C
testedTarget: 299254-011-R-J1-PDC complex spheroid viability
measureUnit: %
number: 106
//
molecule: COc1cccc2c1C(=O)c1c(O)c3c(c(O)c1C2=O)CC(O)(C(=O)CO)CC3OC1CC(N)C(O)C(C)O1 (stereo not given) + Cc1cccc(N(C)C(=O)C2C(O)CCN2c2nc(C)cc(C(F)(F)F)c2C#N)c1
testedTarget: 299254-011-R-J1-PDC complex spheroid viability
measureUnit: %
number: 83.7
//
molecule: COc1cc(C2c3cc4c(cc3C(OC3OC5COC(C)OC5C(O)C3O)C3COC(=O)C23)OCO4)cc(OC)c1O (stereo not given) + Nc1ccc(C#CCN(C(=O)Cc2ncc(C(F)(F)F)cc2C(F)(F)F)c2ccc(F)cc2)nn1
testedTarget: 299254-011-R-J1-PDC complex spheroid viability
measureUnit: %
number: 112
//
molecule: C#Cc1c(F)ccc2cc(O)cc(-c3ncc4c(N5CC6CCC(C5)N6)nc(OCC56CCCN5CC(F)C6)nc4c3F)c12 (stereo not given) + Cc1cccc(N(C)C(=O)C2C(O)CCN2c2nc(C)cc(C(F)(F)F)c2C#N)c1
testedTarget: 299254-011-R-J1-PDC complex spheroid viability
measureUnit: %
number: 105
//
molecule: O=c1[nH]cc(F)c(=O)[nH]1 + Cc1cccc(N(C)C(=O)C2C(O)CCN2c2nc(C)cc(C(F)(F)F)c2C#N)c1
testedTarget: 299254-011-R-J1-PDC complex spheroid viability
measureUnit: %
number: 105
//
molecule: CC(C)n1c(=O)n(C)c2cnc3cc(F)c(-c4ccc(OCCCN5CCCCC5)nc4)cc3c21 + COC1C(OC(N)=O)C(O)C(Oc2ccc3c(O)c(NC(=O)c4ccc(O)c(CC=C(C)C)c4)c(=O)oc3c2C)OC1(C)C
testedTarget: 299254-011-R-J1-PDC complex spheroid viability
measureUnit: %
number: 113
//
molecule: CCc1cc2c(N3CCc4c(cc(Cn5ccnc5)cc4-c4cn(C)nc4C(F)(F)F)C3=O)ccnc2c(OC)n1 + Nc1ccc(C#CCN(C(=O)Cc2ncc(C(F)(F)F)cc2C(F)(F)F)c2ccc(F)cc2)nn1
testedTarget: 299254-011-R-J1-PDC complex spheroid viability
measureUnit: %
number: 101
//
molecule: CC(C)n1c(=O)n(C)c2cnc3cc(F)c(-c4ccc(OCCCN5CCCCC5)nc4)cc3c21 + Nc1ccc(C#CCN(C(=O)Cc2ncc(C(F)(F)F)cc2C(F)(F)F)c2ccc(F)cc2)nn1
testedTarget: 299254-011-R-J1-PDC complex spheroid viability
measureUnit: %
number: 105
//
molecule: O=C(c1cc(Cc2n[nH]c(=O)c3ccccc23)ccc1F)N1CCN(C(=O)C2CC2)CC1 + Nc1ccc(C#CCN(C(=O)Cc2ncc(C(F)(F)F)cc2C(F)(F)F)c2ccc(F)cc2)nn1
testedTarget: 299254-011-R-J1-PDC complex spheroid viability
measureUnit: %
number: 94

---

tested on: 299254-011-R-J1-PDC complex spheroid viability; test: Anticancer human tumor 299254-011-R-J1-PDC cell line growth inhibition [POLQ]; conditions: second compound 0.316 µM; first compound 10 µM; stronger effect = lower value;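 also: spheroids exposed to drugs for one week before measurement; percent viability relative to DMSO vehicle control taken as 100%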
outcomeMeasure: viability, T/C (%)

compound: COc1cc2cc(C(=O)CCC(=O)O)sc2cc1OC + Nc1ccc(C#CCN(C(=O)Cc2ncc(C(F)(F)F)cc2C(F)(F)F)c2ccc(F)cc2)nn1
number: 102
//
compound: Nc1ccn(C2OC(CO)C(O)C2(F)F)c(=O)n1 (stereo unspecified) + Nc1ccc(C#CCN(C(=O)Cc2ncc(C(F)(F)F)cc2C(F)(F)F)c2ccc(F)cc2)nn1
number: 38.2
//
compound: COc1cc2cc(C(=O)CCC(=O)O)sc2cc1OC + COC1C(OC(N)=O)C(O)C(Oc2ccc3c(O)c(NC(=O)c4ccc(O)c(CC=C(C)C)c4)c(=O)oc3c2C)OC1(C)C
number: 109
//
compound: CNCc1ccc(-c2[nH]c3cc(F)cc4c3c2CCNC4=O)cc1 + Nc1ccc(C#CCN(C(=O)Cc2ncc(C(F)(F)F)cc2C(F)(F)F)c2ccc(F)cc2)nn1
number: 129
//
compound: CCc1cc2c(N3CCc4c(cc(Cn5ccnc5)cc4-c4cn(C)nc4C(F)(F)F)C3=O)cc(C)nc2c(OC)n1 + Cc1cccc(N(C)C(=O)C2C(O)CCN2c2nc(C)cc(C(F)(F)F)c2C#N)c1
number: 65.3
//
compound: C#Cc1c(F)ccc2cc(O)cc(-c3ncc4c(N5CC6CCC(C5)N6)nc(OCC56CCCN5CC(F)C6)nc4c3F)c12 (stereo unspecified) + COC1C(OC(N)=O)C(O)C(Oc2ccc3c(O)c(NC(=O)c4ccc(O)c(CC=C(C)C)c4)c(=O)oc3c2C)OC1(C)C
number: 72.7

---

system: 299254-011-R-J1-PDC complex spheroid viability; test: Anticancer human tumor 299254-011-R-J1-PDC cell line growth inhibition [POLQ]; details: second compound 0.1 µM; first compound 1 µM; stronger effect = lower value;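 also: spheroids exposed to drugs for one week before measurement; percent viability relative to DMSO vehicle control taken as 100%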

compound: COc1ccc([C@@H](O)c2cc(-c3ncnc4cc(N5CCOCC5)ccc34)c(F)cc2Cl)nn1 + Cc1cccc(N(C)C(=O)C2C(O)CCN2c2nc(C)cc(C(F)(F)F)c2C#N)c1
measureUnit: %
viability, T/C: 92.5
--
compound: CC1COCCN1c1cc(C2(S(C)(=N)=O)CC2)nc(-c2ccnc3[nH]ccc23)n1 (stereo not drawn) + COC1C(OC(N)=O)C(O)C(Oc2ccc3c(O)c(NC(=O)c4ccc(O)c(CC=C(C)C)c4)c(=O)oc3c2C)OC1(C)C
measureUnit: %
viability, T/C: 106
--
compound: Nc1ccn(C2OC(CO)C(O)C2(F)F)c(=O)n1 (stereo not drawn) + Nc1ccc(C#CCN(C(=O)Cc2ncc(C(F)(F)F)cc2C(F)(F)F)c2ccc(F)cc2)nn1
measureUnit: %
viability, T/C: 48.5
--
compound: CCCS(=O)(=O)Nc1ccc(F)c(C(=O)c2c[nH]c3ncc(-c4ccc(Cl)cc4)cc23)c1F + COC1C(OC(N)=O)C(O)C(Oc2ccc3c(O)c(NC(=O)c4ccc(O)c(CC=C(C)C)c4)c(=O)oc3c2C)OC1(C)C
measureUnit: %
viability, T/C: 105
--
compound: CCc1cc2c(N3CCc4c(cc(Cn5ccnc5)cc4-c4cn(C)nc4C(F)(F)F)C3=O)cc(C)nc2c(OC)n1 + Nc1ccc(C#CCN(C(=O)Cc2ncc(C(F)(F)F)cc2C(F)(F)F)c2ccc(F)cc2)nn1
measureUnit: %
viability, T/C: 101
--
compound: O=c1[nH]cc(F)c(=O)[nH]1 + Cc1cccc(N(C)C(=O)C2C(O)CCN2c2nc(C)cc(C(F)(F)F)c2C#N)c1
measureUnit: %
viability, T/C: 94.8
--
compound: COc1cccc(OCCCN)c1-c1cc(Nc2cnc(C#N)cn2)n[nH]1 + COC1C(OC(N)=O)C(O)C(Oc2ccc3c(O)c(NC(=O)c4ccc(O)c(CC=C(C)C)c4)c(=O)oc3c2C)OC1(C)C
measureUnit: %
viability, T/C: 38
--
compound: CCc1cc2c(N3CCc4c(cc(Cn5ccnc5)cc4-c4cn(C)nc4C(F)(F)F)C3=O)ccnc2c(OC)n1 + Cc1cccc(N(C)C(=O)C2C(O)CCN2c2nc(C)cc(C(F)(F)F)c2C#N)c1
measureUnit: %
viability, T/C: 99.4
--
compound: CNCc1ccc(-c2[nH]c3cc(F)cc4c3c2CCNC4=O)cc1 + COC1C(OC(N)=O)C(O)C(Oc2ccc3c(O)c(NC(=O)c4ccc(O)c(CC=C(C)C)c4)c(=O)oc3c2C)OC1(C)C
measureUnit: %
viability, T/C: 107
--
compound: COc1ccc([C@@H](O)c2cc(-c3ncnc4cc(N5CCOCC5)ccc34)c(F)cc2Cl)nn1 + Nc1ccc(C#CCN(C(=O)Cc2ncc(C(F)(F)F)cc2C(F)(F)F)c2ccc(F)cc2)nn1
measureUnit: %
viability, T/C: 105
--
compound: O=C(Nc1ccc(O)c(NS(=O)(=O)c2ccc(F)cc2)c1)c1ccc(-c2ccccc2)cc1 + Nc1ccc(C#CCN(C(=O)Cc2ncc(C(F)(F)F)cc2C(F)(F)F)c2ccc(F)cc2)nn1
measureUnit: %
viability, T/C: 101
--
compound: CCCS(=O)(=O)Nc1ccc(F)c(C(=O)c2c[nH]c3ncc(-c4ccc(Cl)cc4)cc23)c1F + Nc1ccc(C#CCN(C(=O)Cc2ncc(C(F)(F)F)cc2C(F)(F)F)c2ccc(F)cc2)nn1
measureUnit: %
viability, T/C: 110
--
compound: COc1cccc2c1C(=O)c1c(O)c3c(c(O)c1C2=O)CC(O)(C(=O)CO)CC3OC1CC(N)C(O)C(C)O1 (stereo not drawn) + COC1C(OC(N)=O)C(O)C(Oc2ccc3c(O)c(NC(=O)c4ccc(O)c(CC=C(C)C)c4)c(=O)oc3c2C)OC1(C)C
measureUnit: %
viability, T/C: 44.9

Cited source: PubChem BioAssay AID1963849
